Attribution: patent US10611777B2

# TARGET_OF_ASSAY: PI3K-γ (p110γ) (Homo sapiens (Human))
# Sequence (P48736 whole entry, species assumed): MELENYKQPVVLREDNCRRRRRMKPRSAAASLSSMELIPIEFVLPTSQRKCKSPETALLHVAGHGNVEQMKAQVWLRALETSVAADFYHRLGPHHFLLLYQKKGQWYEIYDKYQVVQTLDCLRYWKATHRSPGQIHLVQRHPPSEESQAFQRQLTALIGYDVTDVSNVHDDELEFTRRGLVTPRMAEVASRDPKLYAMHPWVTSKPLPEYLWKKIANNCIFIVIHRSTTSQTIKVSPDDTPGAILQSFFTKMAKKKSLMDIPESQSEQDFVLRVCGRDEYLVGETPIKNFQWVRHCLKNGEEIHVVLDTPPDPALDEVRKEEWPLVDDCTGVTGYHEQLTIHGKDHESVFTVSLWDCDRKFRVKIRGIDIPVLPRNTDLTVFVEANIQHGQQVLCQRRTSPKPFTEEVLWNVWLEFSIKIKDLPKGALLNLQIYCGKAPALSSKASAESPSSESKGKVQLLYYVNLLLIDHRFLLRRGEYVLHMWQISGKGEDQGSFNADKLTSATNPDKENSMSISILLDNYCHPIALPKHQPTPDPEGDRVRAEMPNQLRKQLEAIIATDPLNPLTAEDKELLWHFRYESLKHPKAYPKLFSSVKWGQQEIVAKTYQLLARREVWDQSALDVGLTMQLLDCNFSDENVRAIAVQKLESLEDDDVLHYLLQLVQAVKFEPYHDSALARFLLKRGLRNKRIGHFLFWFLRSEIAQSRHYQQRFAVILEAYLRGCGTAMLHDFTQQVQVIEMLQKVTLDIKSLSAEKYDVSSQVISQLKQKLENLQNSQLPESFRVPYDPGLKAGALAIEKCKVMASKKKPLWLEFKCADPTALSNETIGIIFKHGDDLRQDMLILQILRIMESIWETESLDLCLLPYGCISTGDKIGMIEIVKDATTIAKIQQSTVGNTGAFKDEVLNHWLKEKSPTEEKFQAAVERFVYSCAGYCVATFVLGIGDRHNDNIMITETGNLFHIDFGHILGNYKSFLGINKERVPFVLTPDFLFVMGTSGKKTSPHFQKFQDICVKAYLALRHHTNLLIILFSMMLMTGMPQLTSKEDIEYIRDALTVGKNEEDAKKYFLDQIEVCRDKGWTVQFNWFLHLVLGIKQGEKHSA
# METHOD_NOTES: Fluorescent determination of PI3K enzyme activity (Transcreener KINASE Assay), PI3K-γ;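 further: p110γ enzyme reaction for 80 min at room temperature, ADP formed measured by far-red competitive fluorescence polarization immunoassay, inhibition relative to wells with 2% DMSO only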
# Assay type: biochemical
REPORTED_METRIC: IC50 (µM)
Note: unit µM is implicit; provide only the numeric part.

Return IC50 for the following compound: CCC(Nc1ncnc2[nH]cnc12)c1cc2ncc(Cl)n2nc1-c1ccccc1F (single isomer, unassigned)
2.59

* * *

Listed here are compounds together with their documented PI3K-β IH%.
# TARGET_OF_ASSAY: PI3K-β (p110β/p85α) (Homo sapiens (Human))
# METHOD_NOTES: Fluorescent determination of PI3K enzyme activity (Transcreener KINASE Assay), PI3K-β
# Assay type: biochemical
# MEASUREMENT_CONDITIONS: inhibition rate at 1 μM
Note: unit % is implicit; provide only the numeric part.

* C[C@H](Nc1ncnc(N)c1C#N)c1cc2ncc(Cl)n2nc1-c1cc(F)ccc1F | 67.6
* C[C@@H](c1cc2ncc(Cl)n2nc1-c1ccccc1)N(C)c1ncnc(N)c1C#N | 7.4
* C[C@H](Nc1ncnc(N)c1C#N)c1cc2ncc(Cl)n2nc1-c1ccc2scnc2c1 | 49.4

Supply PI3K-β IH% measured with PI3K-β (p110β/p85α) (Homo sapiens (Human)) for C[C@H](Nc1ncnc(N)c1C#N)c1cc2ncc(Cl)n2nc1-c1ccc2c(c1)OCCO2 .
37.4

Supply PI3K-β IH% measured with PI3K-β (p110β/p85α) (Homo sapiens (Human)) for Cc1cnc2cc([C@H](C)Nc3ncnc(N)c3C#N)c(-c3ccccc3)nn12 .
76.7

Supply PI3K-β IH% measured with PI3K-β (p110β/p85α) (Homo sapiens (Human)) for C[C@H](Nc1ncnc(N)c1C(N)=O)c1cc2ncc(Cl)n2nc1-c1ccccc1 .
30.5

* * *

# TARGET_OF_ASSAY: PI3K-β (p110β/p85α) (Homo sapiens (Human), UniProt P42338)
# Sequence (P42338 whole entry, species assumed): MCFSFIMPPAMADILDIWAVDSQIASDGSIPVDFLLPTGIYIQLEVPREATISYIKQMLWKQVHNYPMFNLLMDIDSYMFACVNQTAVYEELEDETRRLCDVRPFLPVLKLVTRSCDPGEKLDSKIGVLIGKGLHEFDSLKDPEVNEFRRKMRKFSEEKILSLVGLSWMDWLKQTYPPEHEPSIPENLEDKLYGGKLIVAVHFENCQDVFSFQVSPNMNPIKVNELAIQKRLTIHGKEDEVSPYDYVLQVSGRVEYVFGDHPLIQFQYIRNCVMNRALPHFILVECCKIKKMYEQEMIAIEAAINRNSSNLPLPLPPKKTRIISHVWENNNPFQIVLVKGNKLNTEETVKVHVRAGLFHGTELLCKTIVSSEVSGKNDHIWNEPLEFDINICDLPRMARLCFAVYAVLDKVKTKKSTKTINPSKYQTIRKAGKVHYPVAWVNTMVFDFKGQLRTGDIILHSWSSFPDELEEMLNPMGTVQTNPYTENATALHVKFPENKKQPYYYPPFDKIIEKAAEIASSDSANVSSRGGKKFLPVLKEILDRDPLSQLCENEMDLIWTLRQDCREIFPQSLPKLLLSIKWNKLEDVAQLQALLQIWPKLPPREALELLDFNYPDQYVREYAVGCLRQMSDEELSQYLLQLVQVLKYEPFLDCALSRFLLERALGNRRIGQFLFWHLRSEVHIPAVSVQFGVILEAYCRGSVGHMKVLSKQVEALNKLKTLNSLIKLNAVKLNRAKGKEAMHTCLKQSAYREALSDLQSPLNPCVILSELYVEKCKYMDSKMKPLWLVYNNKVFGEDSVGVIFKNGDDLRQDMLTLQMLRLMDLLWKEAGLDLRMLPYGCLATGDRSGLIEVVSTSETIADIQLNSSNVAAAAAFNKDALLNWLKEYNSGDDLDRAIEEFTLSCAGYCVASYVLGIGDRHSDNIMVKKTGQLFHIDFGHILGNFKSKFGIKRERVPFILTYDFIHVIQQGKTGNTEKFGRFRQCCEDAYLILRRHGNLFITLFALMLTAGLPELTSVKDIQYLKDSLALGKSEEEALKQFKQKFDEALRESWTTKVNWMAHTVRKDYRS
# Sequence (P27986 whole entry partner, species assumed): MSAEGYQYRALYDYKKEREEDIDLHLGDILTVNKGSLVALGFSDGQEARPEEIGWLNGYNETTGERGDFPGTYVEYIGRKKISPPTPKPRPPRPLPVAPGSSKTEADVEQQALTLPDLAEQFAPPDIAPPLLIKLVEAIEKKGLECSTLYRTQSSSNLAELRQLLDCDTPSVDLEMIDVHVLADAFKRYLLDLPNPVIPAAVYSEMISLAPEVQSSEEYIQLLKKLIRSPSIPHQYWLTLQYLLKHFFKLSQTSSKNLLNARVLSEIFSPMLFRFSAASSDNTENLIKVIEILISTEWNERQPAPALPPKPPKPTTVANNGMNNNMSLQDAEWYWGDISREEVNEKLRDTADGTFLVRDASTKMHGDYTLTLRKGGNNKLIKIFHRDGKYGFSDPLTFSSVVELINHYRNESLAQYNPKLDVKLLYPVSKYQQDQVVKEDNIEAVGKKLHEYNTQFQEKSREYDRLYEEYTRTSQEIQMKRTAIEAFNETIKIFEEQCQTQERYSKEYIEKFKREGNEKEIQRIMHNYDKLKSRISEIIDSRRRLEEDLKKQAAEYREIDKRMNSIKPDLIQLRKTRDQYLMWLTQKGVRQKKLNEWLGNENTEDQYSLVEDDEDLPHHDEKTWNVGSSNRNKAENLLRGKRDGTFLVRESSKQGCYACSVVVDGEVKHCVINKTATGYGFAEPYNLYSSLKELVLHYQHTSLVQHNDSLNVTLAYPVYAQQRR
# METHOD_NOTES: Fluorescent determination of PI3K enzyme activity (Transcreener KINASE Assay), PI3K-β;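 further: Far-red fluorescence polarization immunoassay detecting ADP produced by the kinase, 80 min enzyme reaction at room temperature, inhibition relative to ADP formed in 2% DMSO control wells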
# Format: biochemical
# MEASUREMENT_CONDITIONS: inhibition rate at 1 μM
Listed here are compounds together with their documented PI3K-β IH%.
Note: unit % is implicit; provide only the numeric part.

* COc1cc(-c2c(N)ncnc2N[C@@H](C)c2cc3ncc(Cl)n3nc2-c2ccccc2)ccn1 | −14.1
* C[C@H](Nc1ncnc(N)c1C#N)c1cc2ncc(Cl)n2nc1-c1ccc2cccnc2c1 | 24.4
* CCC(Nc1ncnc2[nH]cnc12)c1cc2ncc(Cl)n2nc1-c1ccccc1 (centres unmarked) [Compound 18] | 42
* C[C@H](Nc1ncnc2[nH]cnc12)c1cc2ncc(Cl)n2nc1-c1cccc(F)c1 | 27.5
* C[C@H](Nc1nc[n+]([O-])c(N)c1C#N)c1cc2ncc(Cl)n2nc1-c1ccccc1 | −15.5
* C[C@H](Nc1ncnc(N)c1C#N)c1cc2ncc(Cl)n2nc1-c1ccncc1 | 60.8
* CC(Nc1ncnc2[nH]cnc12)c1cc2ncc(Cl)n2nc1-c1ccccc1 (single isomer, unassigned) | 55.7
* C[C@H](Nc1ncnc(N)c1-c1ccc(O)c(F)c1)c1cc2ncc(Cl)n2nc1-c1ccccc1 | −2.2

Supply PI3K-β IH% measured with PI3K-β (p110β/p85α) (Homo sapiens (Human), UniProt P42338) for C[C@H](Nc1ncnc(N)c1C#N)c1cc2ncc(Cl)n2nc1-c1ccc2ccn(C)c2c1 .
54.9
